Origin of measurements: patent US20250270287A1

Task for the reader: assign each of the following binders its reported IC50, BRE-luciferase reporter in C2C12 cells.
Target: T1, BMP-9 (UniProt Q9UK05 320-429)
T1 sequence (looked up): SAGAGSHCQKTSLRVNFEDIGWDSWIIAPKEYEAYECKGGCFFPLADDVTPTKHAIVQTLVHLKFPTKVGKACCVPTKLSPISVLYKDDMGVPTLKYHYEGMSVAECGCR
Test: cell-based or functional assay
# value in µg/mL; strip the unit string

# get_value(readout='IC50, BRE-luciferase reporter in C2C12 cells', item= ActRIIB-A6 (SEQ ID NO: 124) chimera-Fc protein (Fc fusion, Tested as chimera-Fc protein; not shown: linker (if any) and Fc domain) GRGEAETRECIYYNANWELERTNQSGLERCEGEQDKRLHCYASWRNSSGTIELVKKGCWLDDFNCYDRQECVATKDSPEVYFCCCEGNFCNERFTHLPEAGGPEVTYEPPPTAPT )
0.23

Next record, please: ActRIIB-A1 (SEQ ID NO: 120) chimera-Fc protein (Fc fusion, not shown: a dimerising Fc or GST) GAILGRSETQECIYYNANWELERTNQSGLERCEGEQDKRLHCYASWRNSSGTIELVKKGCWLDDFNCYDRQECVATEENPQVYFCCCEGNFCNERFTHLPEAGGPEVTYEPPPTAPT
0.14

Then ActRIIB-B1B4 (SEQ ID NO: 117) chimera-Fc protein (Fc fusion, Tested as chimera-Fc protein; not shown: linker (if any) and Fc domain) GRGEAETRECLFFNANWELERTNQSGLERCEGEQDKRLHCYASWRNSSGSIEIVKQGCWLDDFNCYDRQECVATEENPQVYFCCCEGNFCNERFTHLPEAGGPEVTYEPPPTAPT ?
0.39

Okay, and ActRIIB-B2 (SEQ ID NO: 111) chimera-Fc protein (Fc fusion, Tested as chimera-Fc protein; not shown: linker (if any) and Fc domain) GRGEAETRECIYYNANWELERTNQTGVEPCEGEQDKRLHCYASWRNSSGTIELVKKGCWLDDFNCYDRQECVATEENPQVYFCCCEGNFCNERFTHLPEAGGPEVTYEPPPTAPT ?
0.3
